src = patent US20260151494A1

# Target: T1, human CD71 extracellular domain (CD71-ECD) (human, UniProt P02786 89-760)
# T1 construct: also called hCD71; human CD71-ECD
# T1 sequence (P02786 89-760): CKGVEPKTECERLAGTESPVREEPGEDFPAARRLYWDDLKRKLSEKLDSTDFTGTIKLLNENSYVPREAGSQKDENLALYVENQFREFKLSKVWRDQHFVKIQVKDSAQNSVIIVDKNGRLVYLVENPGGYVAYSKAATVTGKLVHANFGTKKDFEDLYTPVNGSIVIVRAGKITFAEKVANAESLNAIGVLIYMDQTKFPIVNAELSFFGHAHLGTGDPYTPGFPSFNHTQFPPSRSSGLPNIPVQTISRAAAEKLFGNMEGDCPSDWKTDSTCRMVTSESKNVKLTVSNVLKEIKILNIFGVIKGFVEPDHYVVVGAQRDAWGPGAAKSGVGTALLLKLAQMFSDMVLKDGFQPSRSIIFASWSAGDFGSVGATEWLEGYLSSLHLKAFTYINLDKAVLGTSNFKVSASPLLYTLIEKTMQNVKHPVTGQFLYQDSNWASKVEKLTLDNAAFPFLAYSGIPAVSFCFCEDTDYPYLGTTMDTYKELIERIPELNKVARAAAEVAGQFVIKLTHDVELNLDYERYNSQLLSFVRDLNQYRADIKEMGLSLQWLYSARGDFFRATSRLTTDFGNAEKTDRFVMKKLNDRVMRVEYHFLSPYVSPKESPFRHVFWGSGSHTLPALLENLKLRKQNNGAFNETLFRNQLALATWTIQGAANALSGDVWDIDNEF
# Method Description: primary ELISA; note: test concentration or dose not given here
For each of the binders below, state its RLU.
Field: value (include unit after the number)

binder="CD71-binding FN3 domain SEQ ID NO: 259 (designed binder) MSLPAPKNLVVSRVTEDSARLSWTAPDAAFDSFYIAYAEPRPDGEAILLEVPGSERSYDLTGLKPGTEYSVLIHGVKGGLLSSPLSATFTT" value="3.77e+06 RLU"
binder="CD71-binding FN3 domain SEQ ID NO: 270 (designed binder) MSLPAPKNLVVSRVTEDSARLSWTAPDAAFDSFFIGYLEPQPPGEAIHLYVPGSERSYDLTGLKPGTEYNVTIQGVKGGFPSEPLIANSTT" value="5.5e+06 RLU"
binder="CD71-binding FN3 domain SEQ ID NO: 249 (designed binder) MSLPAPKNLVVSRVTEDSARLSWTAPDAAFDSFEIGYWENAYRGEAIVLTVPGSERSYDLTGLKPGTEYVVFIGGVKGGVWSVPLSAIFTT" value="3.02e+06 RLU"
binder="CD71-binding FN3 domain SEQ ID NO: 272 (designed binder) MSLPAPKNLVVSRVTEDSARLSWTAPDAAFDSFEIAYGEAAYDGEAIALLVPGSERSYDLTGLKPGTEYWVQIGGVKGGNWSAPLSAIFTT" value="2.83e+06 RLU"
binder="CD71-binding FN3 domain SEQ ID NO: 305 (designed binder) MSLPAPKNLVVSRVTEDSARLSWTAPDAAFDSFEIAYFEQTYTGEAIVLTVPGSERSYDLTGLKPGTEYWVQIGGVKGGNWSAPLSAIFTT" value="3.62e+06 RLU"

State recorded RLU for all listed binders.
1. CD71-binding FN3 domain SEQ ID NO: 248 (designed binder) MSLPAPKNLVVSRVTEDSARLSWTAPDAAFDSFEIGYFENLYLGEAIVLTVPGSERSYDLTGLKPGTEYVVFIGGVKGGDFSPPLSAIFTT
2. CD71-binding FN3 domain SEQ ID NO: 329 (designed binder) MSLPAPKNLVVSRVTEDSARLSWTAPDAAFDSFDIGYFEATYYGEAIVLTVPGSERSYDLTGLKPGTEYRVWIGGVKGGYYSNPLSAIFTT
3. CD71-binding FN3 domain SEQ ID NO: 265 (designed binder) MSLPAPKNLVVSRVTEDSARLSWTAPDAAFDSFFIGYLEPQPPGEAISLYVPGSERSYDLTGLKPGTEYNVTIQGVKGGFPSDPLVAHFTT
4. CD71-binding FN3 domain SEQ ID NO: 319 (designed binder) MSLPAPKNLVVSRVTEDSARLSWTAPGAAFDSFEIGYFENLYLGEAIVLTVPGSERSYDLTGLKPGTEYWVQIGGVKGGVWSVPLSAIFTT

3.49e+06 RLU
3.28e+06 RLU
5.66e+06 RLU
3.35e+06 RLU
